Protocol Summary: Reverse-phase thin-layer chromatographic lipophilicity (RF, RM0)
Format: physicochemical
Condition Parameters: RP-18 silica; VI = 55%AC/40%H2O/5%HCl
Quantity Measured: RF, Acetone/Water/Hydrochloric acid (conc.), mobile phase VI

Compound | Observed Measurement
Clc1ccc2c(NCCCCNCC34CC5CC(CC(C5)C3)C4)ccnc2c1 | 0.41
Clc1ccc2c(NCCCN3CCN(CCCNCC45CC6CC(CC(C6)C4)C5)CC3)ccnc2c1 | 0.51
CC(CCNCC12CC3CC(CC(C3)C1)C2)Nc1ccnc2cc(Cl)ccc12 (centres unmarked) | 0.41
CC(CCNCC12CC3CC(CC(C3)C1)C2)Nc1ccnc2cc(C(F)(F)F)ccc12 (centres unmarked) | 0.34
Clc1ccc2c(NCCCCCN(CCC34CC5CC(CC(C5)C3)C4)CCC34CC5CC(CC(C5)C3)C4)ccnc2c1 | 0.08
Clc1ccc2c(Nc3cccc(NCC45CC6CC(CC(C6)C4)C5)c3)ccnc2c1 | 0.36
Clc1ccc2c(Nc3ccc(NCC45CC6CC(CC(C6)C4)C5)cc3)ccnc2c1 | 0.39
Clc1ccc2c(NCCN(CCC34CC5CC(CC(C5)C3)C4)CCC34CC5CC(CC(C5)C3)C4)ccnc2c1 | 0.09
FC(F)(F)c1ccc2c(NCCCNCC34CC5CC(CC(C5)C3)C4)ccnc2c1 | 0.36
Clc1ccc2c(N3CCN(CC45CC6CC(CC(C6)C4)C5)CC3)ccnc2c1 | 0.51
FC(F)(F)c1ccc2c(NCCNCC34CC5CC(CC(C5)C3)C4)ccnc2c1 | 0.36
CC(CCNCCC12CC3CC(CC(C3)C1)C2)Nc1ccnc2ccccc12 (centres unmarked) | 0.39
CC(CCNCCC12CC3CC(CC(C3)C1)C2)Nc1ccnc2cc(Cl)ccc12 (centres unmarked) | 0.33
Clc1ccc2c(NCCCNCC34CC5CC(CC(C5)C3)C4)ccnc2c1 | 0.41
Clc1ccc2c(NCCNCC34CC5CC(CC(C5)C3)C4)ccnc2c1 | 0.41
Clc1ccc2c(NCCCCN(CCC34CC5CC(CC(C5)C3)C4)CCC34CC5CC(CC(C5)C3)C4)ccnc2c1 | 0.09
Clc1ccc2c(NCCCCCCCCNCC34CC5CC(CC(C5)C3)C4)ccnc2c1 | 0.32
Clc1ccc2c(Nc3cccc4c(NCCC56CC7CC(CC(C7)C5)C6)cccc34)ccnc2c1 | 0.28
Clc1ccc2c(N3CCN(CCC45CC6CC(CC(C6)C4)C5)CC3)ccnc2c1 | 0.4
CC(CCNCC12CC3CC(CC(C3)C1)C2)Nc1ccnc2ccccc12 (centres unmarked) | 0.4
Clc1ccc2c(NCCCCCCNCC34CC5CC(CC(C5)C3)C4)ccnc2c1 | 0.37
Clc1ccc2c(NCCCN3CCN(CCCNCCC45CC6CC(CC(C6)C4)C5)CC3)ccnc2c1 | 0.42
Clc1ccc2c(NCCNCCC34CC5CC(CC(C5)C3)C4)ccnc2c1 | 0.34

----------
Protocol Summary: Reverse-phase thin-layer chromatographic lipophilicity (RF, RM0)
Assay type: physicochemical
Condition Parameters: Dioxane/Water/Hydrochloric acid (conc.); slope of RM = RM0 + bC
Lab note: compare b with 2, writing yes (1) if less and no (0) if equal or more.

Compound | Assigned Label
CC(CCNCCC12CC3CC(CC(C3)C1)C2)Nc1ccnc2ccccc12 (stereo not drawn) [Compound 16] | yes (1)
CC(CCNCC12CC3CC(CC(C3)C1)C2)Nc1ccnc2ccccc12 (stereo not drawn) [Compound 15] | yes (1)
Clc1ccc2c(N3CCN(CCC45CC6CC(CC(C6)C4)C5)CC3)ccnc2c1 [Compound 21] | yes (1)
Clc1ccc2c(NCCCCNCC34CC5CC(CC(C5)C3)C4)ccnc2c1 [Compound 3] | yes (1)
Clc1ccc2c(Nc3cccc(NCC45CC6CC(CC(C6)C4)C5)c3)ccnc2c1 [Compound 18] | no (0)
Clc1ccc2c(Nc3cccc4c(NCCC56CC7CC(CC(C7)C5)C6)cccc34)ccnc2c1 [Compound 19] | no (0)
Clc1ccc2c(NCCNCC34CC5CC(CC(C5)C3)C4)ccnc2c1 [Compound 1] | yes (1)
Clc1ccc2c(NCCCNCC34CC5CC(CC(C5)C3)C4)ccnc2c1 [Compound 2] | yes (1)
CC(CCNCC12CC3CC(CC(C3)C1)C2)Nc1ccnc2cc(Cl)ccc12 (stereo not drawn) [Compound 12] | yes (1)

----------
Item-by-item account of RF, Methanol/Water/Hydrochloric acid (conc.), mobile phase VIII
Protocol Summary: Reverse-phase thin-layer chromatographic lipophilicity (RF, RM0)
Type: physicochemical
Condition Parameters: RP-18 silica; VIII = 55%MeOH/40%H2O/5%HCl
Quantity Measured: RF, Methanol/Water/Hydrochloric acid (conc.), mobile phase VIII

Compound | Observed Measurement
Clc1ccc2c(Nc3cccc4c(NCCC56CC7CC(CC(C7)C5)C6)cccc34)ccnc2c1 [Compound 19] | 0.04
Clc1ccc2c(Nc3cccc(NCC45CC6CC(CC(C6)C4)C5)c3)ccnc2c1 [Compound 18] | 0.13
Clc1ccc2c(NCCCCN(CCC34CC5CC(CC(C5)C3)C4)CCC34CC5CC(CC(C5)C3)C4)ccnc2c1 [Compound 10] | 0
Clc1ccc2c(NCCCCCCNCC34CC5CC(CC(C5)C3)C4)ccnc2c1 [Compound 4] | 0.13
Clc1ccc2c(NCCNCC34CC5CC(CC(C5)C3)C4)ccnc2c1 [Compound 1] | 0.22
Clc1ccc2c(NCCCCCN(CCC34CC5CC(CC(C5)C3)C4)CCC34CC5CC(CC(C5)C3)C4)ccnc2c1 [Compound 11] | 0

----------
Protocol Summary: Reverse-phase thin-layer chromatographic lipophilicity (RF, RM0)
Format: physicochemical
Condition Parameters: Methanol/Water/Hydrochloric acid (conc.); intercept of RM = RM0 + bC
Item-by-item account of RM0

Compound | RM0
Clc1ccc2c(NCCNCC34CC5CC(CC(C5)C3)C4)ccnc2c1 [Compound 1] | 2.081
CC(CCNCCC12CC3CC(CC(C3)C1)C2)Nc1ccnc2cc(Cl)ccc12 (centres unmarked) [Compound 14] | 3.293
Clc1ccc2c(NCCCCCCNCC34CC5CC(CC(C5)C3)C4)ccnc2c1 [Compound 4] | 2.899
FC(F)(F)c1ccc2c(NCCCNCC34CC5CC(CC(C5)C3)C4)ccnc2c1 [Compound 7] | 2.606
CC(CCNCCC12CC3CC(CC(C3)C1)C2)Nc1ccnc2ccccc12 (centres unmarked) [Compound 16] | 2.5841
Clc1ccc2c(NCCCNCC34CC5CC(CC(C5)C3)C4)ccnc2c1 [Compound 2] | 2.34
Clc1ccc2c(NCCCCCN(CCC34CC5CC(CC(C5)C3)C4)CCC34CC5CC(CC(C5)C3)C4)ccnc2c1 [Compound 11] | 5.504
Clc1ccc2c(Nc3cccc4c(NCCC56CC7CC(CC(C7)C5)C6)cccc34)ccnc2c1 [Compound 19] | 3.685

----------
Assay System: purified human BChE (Homo sapiens, UniProt P06276)
Construct: possibly also a gift of Dr Florian Nachon (the sentence is ambiguous)
Sequence (P06276 29-602): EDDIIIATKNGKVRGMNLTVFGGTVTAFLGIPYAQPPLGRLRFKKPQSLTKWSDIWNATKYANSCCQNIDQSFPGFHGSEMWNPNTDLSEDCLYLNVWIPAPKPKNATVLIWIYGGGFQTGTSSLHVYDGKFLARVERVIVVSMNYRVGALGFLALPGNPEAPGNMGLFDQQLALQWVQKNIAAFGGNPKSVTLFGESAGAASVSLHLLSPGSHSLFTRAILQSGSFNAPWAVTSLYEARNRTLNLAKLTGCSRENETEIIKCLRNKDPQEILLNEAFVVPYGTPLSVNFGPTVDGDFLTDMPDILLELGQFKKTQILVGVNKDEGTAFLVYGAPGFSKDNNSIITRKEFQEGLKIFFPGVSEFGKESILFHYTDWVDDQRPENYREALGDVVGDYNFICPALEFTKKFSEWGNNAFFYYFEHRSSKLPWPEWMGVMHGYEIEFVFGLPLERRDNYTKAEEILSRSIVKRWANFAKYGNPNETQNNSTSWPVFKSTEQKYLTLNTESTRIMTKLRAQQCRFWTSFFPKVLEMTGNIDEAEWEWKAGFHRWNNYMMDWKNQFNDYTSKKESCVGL
Protocol Summary: biochemical
Format: biochemical
Condition Parameters: logarithm of Ki in µM, BChE; dependent variable of the QSAR model; read-out: Y Measured 2 log(ki)Bche, log (Ki/µM BChE) (converted)
Item-by-item account of Ki

Compound | Ki
FC(F)(F)c1ccc2c(NCCCNCC34CC5CC(CC(C5)C3)C4)ccnc2c1 [Compound 7] | 2.6 µM
Clc1ccc2c(N3CCN(CC45CC6CC(CC(C6)C4)C5)CC3)ccnc2c1 [Compound 20] | 25.1 µM
Clc1ccc2c(NCCCN3CCN(CCCNCC45CC6CC(CC(C6)C4)C5)CC3)ccnc2c1 [Compound 22] | 3.3 µM
Clc1ccc2c(NCCCNCC34CC5CC(CC(C5)C3)C4)ccnc2c1 [Compound 2] | 3.2 µM

----------
Assay System: purified human BChE (Homo sapiens)
Construct: possibly also a gift of Dr Florian Nachon (the sentence is ambiguous)
Protocol Summary: biochemical
Assay type: biochemical
Condition Parameters: ± standard error; 25 °C, ATCh substrate; read-out: Ki BChE
pKi: −log10 of the molar value.
Item-by-item account of pKi

Compound | Assay System | pKi
Clc1ccc2c(NCCCCN(CCC34CC5CC(CC(C5)C3)C4)CCC34CC5CC(CC(C5)C3)C4)ccnc2c1 [Compound 10] | purified human BChE (Homo sapiens) | 6.00
CC(CCNCCC12CC3CC(CC(C3)C1)C2)Nc1ccnc2cc(Cl)ccc12 (centres unmarked) [Compound 14] | purified human BChE (Homo sapiens) | 6.82
Clc1ccc2c(NCCCCCN(CCC34CC5CC(CC(C5)C3)C4)CCC34CC5CC(CC(C5)C3)C4)ccnc2c1 [Compound 11] | purified human BChE (Homo sapiens) | 6.09
CC(CCNCCC12CC3CC(CC(C3)C1)C2)Nc1ccnc2ccccc12 (centres unmarked) [Compound 16] | purified human BChE (Homo sapiens) | 6.42
Clc1ccc2c(NCCNCCC34CC5CC(CC(C5)C3)C4)ccnc2c1 [Compound 8] | purified human BChE (Homo sapiens) | 6.04
FC(F)(F)c1ccc2c(NCCNCC34CC5CC(CC(C5)C3)C4)ccnc2c1 [Compound 6] | purified human BChE (Homo sapiens) | 5.46
Clc1ccc2c(NCCCN3CCN(CCCNCCC45CC6CC(CC(C6)C4)C5)CC3)ccnc2c1 [Compound 23] | purified human BChE (Homo sapiens) | 5.74
Clc1ccc2c(NCCCCCCCCNCC34CC5CC(CC(C5)C3)C4)ccnc2c1 [Compound 5] | purified human BChE (Homo sapiens) | 7.04

Hey, just so you know, these numbers are from paper PMC9229919.
